- Tested on: Canis familiaris
- Assay: Diuretic activity in dog assessed as chloride level in urine collected for 2 hrs at 5 mg/kg, iv over a period of 5 mins (reference value: 1 to 10 microEq)
- Type: functional, Canis lupus familiaris
Quantity Kind: Activity (uEq)
Your answer should be a plain number; it is taken to be in uEq.

Worked cases, Activity given:
O=C(O)COc1cc2c(c(Cl)c1Cl)C(=O)C(C1CCCC1)C2 (stereo in doubt; 4p) ... 5
CCC1(C)Cc2cc(OCC(=O)O)c(Cl)c(Cl)c2C1=O (stereo not given) ... 450
C=CCC1(C)Cc2cc(OCC(=O)O)c(Cl)c(Cl)c2C1=O (stereo not given) ... 171
Cc1c(OCC(=O)O)cc2c(c1C)C(=O)C(C(C)C)C2 (stereo not given) ... 100
CC(C)C1Cc2cc(OCC(=O)O)c(Cl)c(Cl)c2C1=O (stereo not given) ... 330
NS(=O)(=O)c1cc2c(cc1Cl)NCNS2(=O)=O [HYDROCHLOROTHIAZIDE] ... 156
O=C(O)COc1cc2c(c(Cl)c1Cl)C(=O)C1(CCCC1)C2 ... 254
CC(C)C1(C)Cc2cc(OCC(=O)O)c(Cl)c(Cl)c2C1=O (racemic) ... 218

Problem: Any idea what Activity was measured for CC1(C2CCCC2)Cc2cc(OCC(=O)O)c(Cl)c(Cl)c2C1=O (racemic) ?
Solution: 478

Problem: Form field: reported Activity of Cc1c(OCC(=O)O)cc2c(c1Cl)C(=O)C(C(C)C)C2 (stereo not given)
Solution: 204
